Tested on: P. aeruginosa E411-17
Format: cell-based, Pseudomonas aeruginosa
Settings: E411-17
No end group written: not given here.
attribute_measured: MIC

The following substances have reported results that may help.
SKEKIGKEFKRIVQRIKDFLRNLV-NH2 [SK-24] : >32 µM
RIVQRIKDFL-NH2 [RI-10] : >32 µM
GFKRIVQRIKDFLRNLV-NH2 (C-terminus assumed) [GF-17] : 16 µM

Now turn to the next substance.
# lookup: MIC of GIKEFKRIVQRIKDFLRNLV-NH2 [GI-20] >32 µM

###

For each of the substances below, state its tHPLC (HPLC retention time).
Assay: HPLC retention time (measure of peptide hydrophobicity)
Type: physicochemical
Settings: chromatographic, Waters C8 symmetry hydrophobic column, as described in ref 34; used as indicator of peptide hydrophobicity
No end group written: not given here.
Give bare numbers, in min.

The following substances have reported results that may help.
RIVQRIKDFL-NH2 [RI-10] : 8.831
GIKEFKRIVQRIKDFLRNLV-NH2 [GI-20] : 12.681
SKEKIGKEFKRIVQRIKDFLRNLV-NH2 [SK-24] : 12.291

Now turn to the next substance.
# lookup: tHPLC (HPLC retention time) of GFKRIVQRIKDFLRNLV-NH2 (C-terminus assumed) [GF-17] 12.197

###

For each of the substances below, state its MIC.
Test system: E. coli E423-17
Assay type: cell-based, Escherichia coli
Procedure: The antibiotic-resistant pathogens used in this study include the Gram-positive bacteria Enterococcus faecium V286-17 and Staphylococcus aureus USA300 LAC and the Gram-negative bacteria Klebsiella pneumoniae E406-17, Acinetobacter baumannii B28-16, Pseudomonas aeruginosa E411-17, and Escherichia coli E423-17. […] The antibacterial activity of peptides was evaluated using a standard broth microdilution protocol with minor modifications. […]
No end group written: not given here.
One number for each entry, in µM.

The following substances have reported results that may help.
GFKRIVQRIKDFLRNLV-NH2 (C-terminus assumed) [GF-17] : 16
GIKEFKRIVQRIKDFLRNLV-NH2 [GI-20] : 32

Now turn to the next substance.
# lookup: MIC of SKEKIGKEFKRIVQRIKDFLRNLV-NH2 [SK-24] 16
